Molecular target: T1, human Trop-2 expressed on cell surface (human, UniProt P09758 27-323)
T1 sequence (looked up): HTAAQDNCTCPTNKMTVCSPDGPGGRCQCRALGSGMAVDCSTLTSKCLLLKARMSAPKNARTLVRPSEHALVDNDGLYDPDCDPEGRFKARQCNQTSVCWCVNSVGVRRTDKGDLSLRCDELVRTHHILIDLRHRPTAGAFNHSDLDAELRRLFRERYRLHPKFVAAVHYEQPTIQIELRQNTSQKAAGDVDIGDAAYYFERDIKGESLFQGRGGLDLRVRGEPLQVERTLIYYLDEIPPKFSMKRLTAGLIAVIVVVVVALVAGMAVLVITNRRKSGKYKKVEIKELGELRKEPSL
Experiment: cell-based or functional assay
// reported Internalization %, MDA-MB-231, 0.5 µg/ml, 4 h for each item listed
Hi! Could you send only the number? It should be in %, unit omitted.

Answered examples (2):
binder="66A1 (antibody, V domains shown, Rabbit-derived clone; LEM construct: VH + rabbit IgG CH1 + human IgG1 CH2-CH3) VH: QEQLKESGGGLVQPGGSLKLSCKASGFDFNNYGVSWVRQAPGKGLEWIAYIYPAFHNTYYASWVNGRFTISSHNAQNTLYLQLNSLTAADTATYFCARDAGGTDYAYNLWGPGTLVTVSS VL: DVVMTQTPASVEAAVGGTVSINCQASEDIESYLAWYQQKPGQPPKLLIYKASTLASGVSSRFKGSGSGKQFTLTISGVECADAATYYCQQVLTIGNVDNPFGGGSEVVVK" numeric_readout=50
binder="5D4-1 (antibody, V domains shown) VH: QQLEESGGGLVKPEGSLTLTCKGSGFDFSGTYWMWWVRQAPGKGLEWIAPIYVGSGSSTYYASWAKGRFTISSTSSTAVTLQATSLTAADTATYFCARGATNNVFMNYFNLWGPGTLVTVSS VL: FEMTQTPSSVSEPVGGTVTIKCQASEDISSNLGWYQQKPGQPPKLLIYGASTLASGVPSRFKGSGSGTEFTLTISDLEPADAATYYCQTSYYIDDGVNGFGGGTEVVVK" numeric_readout=61

Field: next binder
Kindly indicate its recorded Internalization %, MDA-MB-231, 0.5 µg/ml, 4 h. Item: 72F12 (antibody, V domains shown, Rabbit-derived clone; LEM construct: VH + rabbit IgG CH1 + human IgG1 CH2-CH3) VH: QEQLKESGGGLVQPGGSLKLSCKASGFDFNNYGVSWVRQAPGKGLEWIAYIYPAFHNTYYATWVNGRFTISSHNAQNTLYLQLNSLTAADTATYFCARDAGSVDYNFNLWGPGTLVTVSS VL: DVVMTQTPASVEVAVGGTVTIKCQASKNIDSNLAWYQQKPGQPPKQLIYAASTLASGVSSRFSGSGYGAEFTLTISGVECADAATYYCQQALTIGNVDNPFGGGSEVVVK 48
